Test: APAP-GLUC concentration in plasma of pediatric patients after APAP administration (HPLC)
Format: in vivo, human
Conditions: human, plasma, NASH, 4 h after APAP; read-out: Median plasma concentration
Description: A study was conducted in pediatric patients whose disease status had been biopsy verified. […] High Performance Liquid Chromatography Analysis. APAP and its metabolites in plasma, and urine samples were quantified by high performance liquid chromatography analysis based on previously described methods (Howie et al., 1977a; Chen et al., 2000; Slitt et al., 2003d). […] The elution of metabolites was monitored at a wavelength of 254 nm. […] Quantitation was based on integrated peak areas. […]
READOUT NAME: concentration at 4 h (µM)
Give your result in µM as a bare value.

Consider the compound shown here: CC(=O)Nc1ccc(O[C@@H]2O[C@H](C(=O)O)[C@@H](O)[C@H](O)[C@H]2O)cc1 [APAP-GLUC, acetaminophen (APAP)-glucuronide] What is its recorded concentration at 4 h?
62.6

----------
experiment: APAP-GLUC concentration in plasma of pediatric patients after APAP administration (HPLC); format: in vivo, human; details: human, plasma, Normal, 2 h after APAP; read-out: Mean plasma concentration
READOUT NAME: concentration at 2 h

Name the recorded concentration at 2 h for CC(=O)Nc1ccc(O[C@@H]2O[C@H](C(=O)O)[C@@H](O)[C@H](O)[C@H]2O)cc1 [APAP-GLUC, acetaminophen (APAP)-glucuronide] .
54.3 µM

----------
assay: APAP-GLUC concentration in plasma of pediatric patients after APAP administration (HPLC); type: in vivo, human; details: human, plasma, NASH, 1 h after APAP; read-out: Mean plasma concentration
READOUT NAME: concentration at 1 h (µM)
Only the number, expressed in µM, is required.

Entry under review: CC(=O)Nc1ccc(O[C@@H]2O[C@H](C(=O)O)[C@@H](O)[C@H](O)[C@H]2O)cc1 [APAP-GLUC, acetaminophen (APAP)-glucuronide] . Reported concentration at 1 h?
60.7

----------
assay: APAP-GLUC concentration in plasma of pediatric patients after APAP administration (HPLC); format: in vivo, human; conditions: human, plasma, Normal, 2 h after APAP; read-out: Median plasma concentration
READOUT NAME: concentration at 2 h (µM)
Response body: numeric value in µM, unit text excluded.

What does the data say about its concentration at 2 h? Entry: CC(=O)Nc1ccc(O[C@@H]2O[C@H](C(=O)O)[C@@H](O)[C@H](O)[C@H]2O)cc1 [APAP-GLUC, acetaminophen (APAP)-glucuronide]
48.9

----------
experiment: APAP-GLUC concentration in plasma of pediatric patients after APAP administration (HPLC); type: in vivo, human; conditions: human, plasma, Steatosis, 1 h after APAP; read-out: Mean plasma concentration
READOUT NAME: concentration at 1 h
The reply must contain the numeric value and, after it, the unit.

What value of concentration at 1 h has been recorded for this entry: CC(=O)Nc1ccc(O[C@@H]2O[C@H](C(=O)O)[C@@H](O)[C@H](O)[C@H]2O)cc1 [APAP-GLUC, acetaminophen (APAP)-glucuronide]
30.5 µM

----------
experiment: APAP-GLUC concentration in plasma of pediatric patients after APAP administration (HPLC); assay type: in vivo, human; conditions: human, plasma, Steatosis, 2 h after APAP; read-out: Mean plasma concentration
READOUT NAME: concentration at 2 h (µM)
# value in µM; strip the unit string

Could you share which concentration at 2 h value was measured for CC(=O)Nc1ccc(O[C@@H]2O[C@H](C(=O)O)[C@@H](O)[C@H](O)[C@H]2O)cc1 [APAP-GLUC, acetaminophen (APAP)-glucuronide] ?
44.3
